TEST CONTEXT: [M+Na]+; instrument: TW; calibrated with phosphatidylcholines (ESI+) and phosphatidylethanolamines (ESI-), doubly charged cardiolipins calibrated with poly-DL-…
Recorded collision cross section (N2), one value per entry.
MEASUREMENT KIND: collision cross section (N2) (Å²)

* CCCCCCCC/C=C\CCCCCCCC(=O)OCC(COP(=O)(O)OCC(O)CO)OC(=O)CCCCCCC/C=C\CCCCCCCC (configuration not stated) | 283.87
* CCCCCCCCCCCCCCCC(=O)OC[C@H](O)COP(=O)(O)OC[C@@H](COC(=O)CCCCCCCCCCCCCCC)OC(=O)CCCCCCCC1CC1CCCCCC (some centres not stated) | 332.3
* CCCCCCCCCCCCCCCC(=O)OCC(COP(=O)(O)OCC(O)CO)OC(=O)CCCCCCCC1CC1CCCCCCCC (configuration not stated) | 287.26
* CCCCCCCCCCCCCC(=O)OC[C@@H](O)COP(=O)([O-])OCC[NH3+] | 212.49
* CCCCCCCCCCCCCCC(=O)O[C@H](CO)COP(=O)([O-])OCC[NH3+] | 216.84
* CCCCCCCC/C=C/CCCCCCCC(=O)OC[C@@H](O)COP(=O)([O-])OCC[NH3+] | 219.17
* CCCCCCCC/C=C/CCCCCCCC(=O)O[C@H](CO)COP(=O)([O-])OCC[NH3+] | 220.12

---

List of collision cross section (N2) values.
TEST CONTEXT: [M+H]+; instrument: TW; Major Mix IMS/Tof Calibration Kit (Waters)
MEASUREMENT KIND: collision cross section (N2) (Å²)

• CNC(C)C(=O)c1ccc2c(c1)OCO2 (stereo not given) [Methylone] = 147.3
• CCN(CC)[C@@H](C)[C@H](O)c1ccccc1 [N-diethylnorephedrine] = 144.6
• COCCc1ccc(OCC(O)CNC(C)C)cc1 (stereo not given) [Metoprolol] = 172.7
• CCCc1nn(C)c2c(=O)[nH]c(-c3cc(S(=O)(=O)N4CCN(C)CC4)ccc3OCC)nc12 [Sildenafil] = 212.7
• CC(C)NCC(O)COc1cccc2[nH]ccc12 (stereo not given) [Pindolol] = 159.1
• CN1CCN(C(c2ccccc2)c2ccccc2)CC1 [Cyclizine] = 166.7
• CN1CCN(C2=Nc3cc(Cl)ccc3Nc3ccccc32)CC1 [Clozapine] = 178.8
• CC(=O)c1ccc2c(c1)N(CCCN(C)C)c1ccccc1S2 [Acepromazine] = 176.6
• CC(NC(C)(C)C)C(=O)c1cccc(Cl)c1 (stereo not given) [Bupropion] = 157.8
• CC(=O)Nc1ccc(O)cc1 [Paracetamol] = 132.2

---

Catalogue of molecules with associated collision cross section (N2)
TEST CONTEXT: [M+H]+; instrument: TW
MEASUREMENT KIND: collision cross section (N2) (Å²)

• Clc1ccccc1-c1nnc(-c2ccccc2Cl)nn1 = 161.9
• CC(C)Oc1cc(-n2nc(C(C)(C)C)oc2=O)c(Cl)cc1Cl = 182.17
• Oc1ccc2nc(-c3cscn3)[nH]c2c1 [Hydroxythiabendazole] = 137.2
• Cn1c([N+](=O)[O-])cnc1COC(N)=O = 131.6
• Cc1ccc(C(=O)c2ccc(CC(=O)O)n2C)cc1 = 156.7
• COC(=O)N(C(=O)N1CO[C@@]2(C(=O)OC)Cc3cc(Cl)ccc3C2=N1)c1ccc(OC(F)(F)F)cc1 = 207.03
• CC(C)(C)NCC(O)c1cc(Cl)c(N)c(C(F)(F)F)c1 (centres undefined) = 168.4
• COC(=O)Nc1nc2ccccc2[nH]1 = 134.94
• C=C1C[C@@]23CC[C@H]4[C@@](C)(CCC[C@@]4(C)C(=O)O)[C@@H]2CC[C@]1(O)C3 = 173.38
